Molecular target: Biotinylated SARS-CoV-2 spike S1 protein (SARS-CoV-2, Wuhan, UniProt P0DTC2, biotin (biotinylated))
Assay: SPR

binder: mAb15 (C119) (antibody, V domains shown) VH: QVQLVQSGAEVKKPGASVKVSCKASGYTFTSYYMHWVRQAPGQGLEWMGIINPSGGSTSYAQKLQGRVTMTRDTSTSTVYMELSSLRSEDTAVYYCARANHETTMDTYYYYYYMDVWGKGTTVTVSS VL: QSALTQPASVSGSPGQSITISCTGTSSDVGGYKYVSWYQRHPGKAPKLMIYDVSNRPSGVSNRFSGSKSGNTASLTISGLQAEDEADYYCSSYTSSSTSVVFGGGTQLTVL
binding result: binds
--
binder: mAb19 (CV07-270) (antibody, V domains shown) VH: QVQLVESGGGLVKPGGSLRLSCAASGFTFSDYYMTWIRQAPGKGLEWVSYISSSGSTIYYADSVKGRFTISRDNAKNSLYLQMNSLRAEDTAVYYCARARGSSGWYRIGTRWGNWFDPWGQGTLVTVSS VL: QSALTQPASVSGSPGQSITISCTGTSSDVGGYNYVSWYQQHPGKAPKLMIYEVSNRPSGVSNRFSGSKSGNTASLTISGLQAEDEADYYCSSYTSSSNVVFGGGTMLTVL
binding result: binds
--
binder: mAb10 (52) (antibody, V domains shown) VH: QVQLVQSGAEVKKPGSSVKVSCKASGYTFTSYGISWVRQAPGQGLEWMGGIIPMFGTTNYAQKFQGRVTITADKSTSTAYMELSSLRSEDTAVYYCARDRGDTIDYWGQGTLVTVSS VL: DIQMTQSPSSLSASVGDRVTITCRASQGISNNLNWYQQKPGKAPKLLIYAASSLESGVPSRFSGSGSGTDFTLTISSLQPEDFATYYCQQGNGFPLTFGPGTKVDIK
binding result: binds
